Biological target: HiBit-BRM fusion protein (Homo sapiens, UniProt P51531)
Construct: expressed in transfected cells
Sequence (P51531 whole entry, the tested form may be a part): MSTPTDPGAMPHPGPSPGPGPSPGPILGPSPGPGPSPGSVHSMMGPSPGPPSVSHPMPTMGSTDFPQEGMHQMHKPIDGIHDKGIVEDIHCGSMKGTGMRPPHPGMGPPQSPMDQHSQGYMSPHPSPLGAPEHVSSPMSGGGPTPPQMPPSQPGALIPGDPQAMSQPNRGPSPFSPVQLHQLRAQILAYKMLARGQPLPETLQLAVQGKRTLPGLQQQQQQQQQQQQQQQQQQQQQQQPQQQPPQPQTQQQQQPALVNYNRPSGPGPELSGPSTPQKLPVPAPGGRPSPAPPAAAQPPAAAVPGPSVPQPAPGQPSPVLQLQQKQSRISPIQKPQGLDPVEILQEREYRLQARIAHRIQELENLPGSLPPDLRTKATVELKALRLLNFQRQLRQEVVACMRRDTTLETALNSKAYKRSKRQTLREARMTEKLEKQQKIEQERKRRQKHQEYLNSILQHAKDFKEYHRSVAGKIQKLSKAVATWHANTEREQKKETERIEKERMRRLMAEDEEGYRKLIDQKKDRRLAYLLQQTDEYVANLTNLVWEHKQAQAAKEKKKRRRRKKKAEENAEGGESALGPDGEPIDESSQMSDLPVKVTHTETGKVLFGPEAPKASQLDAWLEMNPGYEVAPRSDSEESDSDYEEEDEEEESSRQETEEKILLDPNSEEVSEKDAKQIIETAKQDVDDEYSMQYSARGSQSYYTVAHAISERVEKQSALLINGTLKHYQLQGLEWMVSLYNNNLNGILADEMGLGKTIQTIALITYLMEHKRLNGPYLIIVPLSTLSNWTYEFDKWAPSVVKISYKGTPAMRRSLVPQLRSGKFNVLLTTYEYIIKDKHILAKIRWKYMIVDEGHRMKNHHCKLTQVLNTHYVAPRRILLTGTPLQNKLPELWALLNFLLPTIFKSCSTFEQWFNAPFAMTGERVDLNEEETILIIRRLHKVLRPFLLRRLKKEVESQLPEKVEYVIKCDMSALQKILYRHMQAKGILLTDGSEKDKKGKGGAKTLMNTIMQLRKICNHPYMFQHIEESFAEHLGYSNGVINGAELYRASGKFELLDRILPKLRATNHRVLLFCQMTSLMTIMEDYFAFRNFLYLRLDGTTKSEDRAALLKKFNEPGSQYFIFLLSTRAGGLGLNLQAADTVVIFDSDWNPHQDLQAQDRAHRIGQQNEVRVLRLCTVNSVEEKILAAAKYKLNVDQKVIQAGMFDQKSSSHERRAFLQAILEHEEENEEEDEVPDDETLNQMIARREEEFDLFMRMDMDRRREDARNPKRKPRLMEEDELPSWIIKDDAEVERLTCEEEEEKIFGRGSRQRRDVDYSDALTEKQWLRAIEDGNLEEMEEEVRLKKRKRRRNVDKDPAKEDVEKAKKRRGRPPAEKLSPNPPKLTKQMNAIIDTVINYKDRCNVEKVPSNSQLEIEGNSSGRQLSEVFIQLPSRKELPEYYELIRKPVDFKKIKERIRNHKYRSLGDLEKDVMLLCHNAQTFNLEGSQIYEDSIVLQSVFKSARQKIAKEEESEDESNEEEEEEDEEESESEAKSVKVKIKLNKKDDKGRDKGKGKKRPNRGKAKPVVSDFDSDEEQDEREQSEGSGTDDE
Assay: HiBiT-BRM cell-based degradation assay (Nano-Glo HiBiT Lytic Detection, 24 h)
Conditions: HeLa cell line expressing HiBiT-BRM, read-out: BRM HiBit Degradation IC50
Observable: DC50

Looking for the measured DC50 of `Cc1ncsc1-c1ccc([C@H](C)NC(=O)[C@@H]2C[C@@H](O)CN2C(=O)[C@@H](c2cc(N3CCC(C(=O)N[C@H]4CCc5[nH]c6nnc(-c7ccccc7O)cc6c5C4)CC3)no2)C(C)C)cc1` , can you help? > 10 nM

Looking for the measured DC50 of Cc1ncsc1-c1ccc(CNC(=O)[C@@H]2C[C@@H](O)CN2C(=O)[C@@H](NC(=O)CCC(=O)N[C@H]2CCc3[nH]c4nnc(-c5ccccc5O)cc4c3C2)C(C)(C)C)cc1 (relative stereo) , can you help? > 1000 nM

Looking for the measured DC50 of Cc1ncsc1-c1ccc(CNC(=O)[C@@H]2C[C@@H](O)CN2C(=O)[C@@H](NC(=O)CCCC(=O)N[C@H]2CCc3[nH]c4nnc(-c5ccccc5O)cc4c3C2)C(C)(C)C)cc1 (single isomer, unassigned) , can you help? > 1000 nM

Looking for the measured DC50 of Cc1ncsc1-c1ccc([C@H](C)NC(=O)[C@@H]2C[C@@H](O)CN2C(=O)[C@@H](c2cc(OCCN3CC(c4[nH]c5nnc(-c6ccccc6O)cc5c4Br)C3)no2)C(C)C)cc1 (racemic) , can you help? > 10 nM

###

Molecular target: HiBit-BRG1 fusion protein (Homo sapiens, UniProt P51532)
Construct: expressed in transfected cells
Sequence (P51532 whole entry, the tested form may be a part): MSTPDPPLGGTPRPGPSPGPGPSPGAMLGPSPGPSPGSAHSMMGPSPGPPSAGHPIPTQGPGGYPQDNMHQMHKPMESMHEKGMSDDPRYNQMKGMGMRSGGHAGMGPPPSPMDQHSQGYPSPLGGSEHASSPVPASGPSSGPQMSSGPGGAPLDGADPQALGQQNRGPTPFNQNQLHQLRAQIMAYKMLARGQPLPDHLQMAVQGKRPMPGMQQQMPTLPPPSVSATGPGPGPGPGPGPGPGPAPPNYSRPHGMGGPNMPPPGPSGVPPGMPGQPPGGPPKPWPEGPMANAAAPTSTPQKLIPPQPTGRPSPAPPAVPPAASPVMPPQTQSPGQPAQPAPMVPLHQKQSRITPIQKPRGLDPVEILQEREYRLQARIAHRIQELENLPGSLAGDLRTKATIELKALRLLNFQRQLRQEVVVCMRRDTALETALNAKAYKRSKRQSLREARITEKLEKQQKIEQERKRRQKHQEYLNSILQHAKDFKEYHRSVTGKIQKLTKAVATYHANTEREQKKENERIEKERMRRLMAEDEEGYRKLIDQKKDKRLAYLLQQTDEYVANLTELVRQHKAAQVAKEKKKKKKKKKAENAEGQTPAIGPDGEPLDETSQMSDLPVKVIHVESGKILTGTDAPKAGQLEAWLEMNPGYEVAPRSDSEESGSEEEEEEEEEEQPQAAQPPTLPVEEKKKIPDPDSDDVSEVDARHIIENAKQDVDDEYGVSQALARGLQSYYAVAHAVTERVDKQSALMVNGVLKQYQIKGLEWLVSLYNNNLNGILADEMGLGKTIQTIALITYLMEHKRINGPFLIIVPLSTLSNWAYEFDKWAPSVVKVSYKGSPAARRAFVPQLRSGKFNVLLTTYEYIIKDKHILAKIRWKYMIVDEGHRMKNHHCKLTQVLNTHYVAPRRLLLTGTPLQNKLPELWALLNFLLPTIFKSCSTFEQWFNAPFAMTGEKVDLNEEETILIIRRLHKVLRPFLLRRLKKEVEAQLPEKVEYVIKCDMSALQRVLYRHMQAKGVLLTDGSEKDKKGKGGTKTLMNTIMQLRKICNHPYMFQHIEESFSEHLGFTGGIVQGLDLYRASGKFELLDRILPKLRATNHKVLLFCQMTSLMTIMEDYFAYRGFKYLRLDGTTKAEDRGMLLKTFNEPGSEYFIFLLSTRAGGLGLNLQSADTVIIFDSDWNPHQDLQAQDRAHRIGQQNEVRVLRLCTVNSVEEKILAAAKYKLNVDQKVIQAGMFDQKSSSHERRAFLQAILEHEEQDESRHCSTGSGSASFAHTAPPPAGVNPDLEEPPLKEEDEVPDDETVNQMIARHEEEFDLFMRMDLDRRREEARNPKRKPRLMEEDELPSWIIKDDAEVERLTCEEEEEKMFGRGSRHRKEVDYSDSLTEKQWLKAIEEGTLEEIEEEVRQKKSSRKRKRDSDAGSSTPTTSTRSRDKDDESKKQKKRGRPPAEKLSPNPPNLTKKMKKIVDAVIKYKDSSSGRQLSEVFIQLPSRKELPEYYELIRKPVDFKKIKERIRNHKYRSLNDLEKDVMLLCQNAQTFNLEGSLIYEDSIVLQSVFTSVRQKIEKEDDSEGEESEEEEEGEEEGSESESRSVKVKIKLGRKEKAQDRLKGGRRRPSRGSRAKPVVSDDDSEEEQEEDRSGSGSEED
Assay: HiBiT-BRG1 cell-based degradation assay (Nano-Glo HiBiT Lytic Detection, 24 h)
Settings: HeLa cell line expressing HiBit-BRG1 and LgBit, read-out: BRG1 HiBit Degradation Maximum (%)
Observable: Dmax

Looking for the measured Dmax of O=C1CCC(N2C(=O)c3ccc(NCCCCCCCCCCC(=O)N4CC(c5cc6cc(-c7ccccc7O)nnc6[nH]5)C4)cc3C2=O)C(=O)N1 (stereo not drawn) [Compound 32] , can you help? < 50%

Looking for the measured Dmax of Cc1ncsc1-c1ccc(CNC(=O)[C@@H]2C[C@@H](O)CN2C(=O)[C@@H](NC(=O)CCCNC(=O)[C@@H]2CCc3[nH]c4nnc(-c5ccccc5O)cc4c3C2)C(C)(C)C)cc1 (single isomer, unassigned) [Compound 196] , can you help? < 50%

Looking for the measured Dmax of Cc1ncsc1-c1ccc([C@H](C)NC(=O)[C@@H]2C[C@@H](O)CN2C(=O)[C@@H](NC(=O)CCCCCCCCCCCCC(=O)N2CC(c3cc4cc(-c5ccccc5O)nnc4[nH]3)C2)C(C)(C)C)cc1 [Compound 12] , can you help? < 50%

Looking for the measured Dmax of Cc1ncsc1-c1ccc(CNC(=O)[C@@H]2C[C@@H](O)CN2C(=O)[C@@H](NC(=O)CCCCCCCCCCCCCCCC(=O)N2CC(c3c[nH]c4nnc(-c5ccccc5O)cc34)C2)C(C)(C)C)cc1 [Compound 42] , can you help? < 50%

Looking for the measured Dmax of Cc1ncsc1-c1ccc([C@H](C)NC(=O)[C@@H]2C[C@@H](O)CN2C(=O)C(c2cc(N3CCC(C(=O)N4CC(c5cc6cc(-c7ccccc7O)nnc6[nH]5)C4)CC3)no2)C(C)C)cc1 (mixture of isomers) [Compound 264] , can you help? < 50%

Looking for the measured Dmax of Cc1ncsc1-c1ccc([C@H](C)NC(=O)[C@@H]2C[C@@H](O)CN2C(=O)[C@@H](c2cc(OCCNCCC(=O)N3CC(c4c[nH]c5nnc(-c6ccccc6O)cc45)C3)no2)C(C)C)cc1 (racemic) [Compound 230] , can you help? < 50%

Looking for the measured Dmax of O=C1CCC(N2C(=O)c3cccc(NCCCCCCCCCCC(=O)N4CC(c5cc6cc(-c7ccccc7O)nnc6[nH]5)C4)c3C2=O)C(=O)N1 (stereo not drawn) [Compound 28] , can you help? < 50%

Looking for the measured Dmax of Cc1ncsc1-c1ccc([C@H](C)NC(=O)[C@@H]2C[C@@H](O)CN2C(=O)[C@@H](c2cc(OCCN(C)Cc3ccc(Cc4cc5cc(-c6ccccc6O)nnc5[nH]4)cc3)no2)C(C)C)cc1 (racemic) [Compound 284] , can you help? > 75%

Looking for the measured Dmax of Cc1ncsc1-c1ccc(CNC(=O)[C@@H]2C[C@@H](O)CN2C(=O)[C@@H](NC(=O)CCCCCNCCC(=O)N2CC(c3c[nH]c4nnc(-c5ccccc5O)cc34)C2)C(C)(C)C)cc1 (racemic) [Compound 57] , can you help? < 50%

Looking for the measured Dmax of Cc1ncsc1-c1ccc([C@H](C)NC(=O)[C@@H]2C[C@@H](O)CN2C(=O)[C@@H](c2cc(OCCNCCC(=O)N3CC(c4cc5cc(-c6ccccc6O)nnc5[nH]4)C3)no2)C(C)C)cc1 (racemic) [Compound 65] , can you help? < 50%

Looking for the measured Dmax of Cc1ncsc1-c1ccc([C@H](C)NC(=O)[C@@H]2C[C@@H](O)CN2C(=O)[C@@H](c2cc(OCCN3CCC[C@H](c4c[nH]c5nnc(-c6ccccc6O)cc45)C3)no2)C(C)C)cc1 (racemic) [Compound 291] , can you help? < 50%

Looking for the measured Dmax of Cc1ncsc1-c1ccc(C(C)NC(=O)C2CC(O)CN2C(=O)C(c2cc(OCCN3CC4C(C3)C4c3c(C)[nH]c4nnc(-c5ccccc5O)cc34)no2)C(C)C)cc1 (stereo not drawn) [Compound 255] , can you help? < 50%

Looking for the measured Dmax of Cc1ncsc1-c1ccc([C@H](C)NC(=O)[C@@H]2C[C@@H](O)CN2C(=O)[C@@H](c2cc(OCCN3C[C@@H]4[C@H](C3)[C@H]4c3[nH]c4nnc(-c5cccc(F)c5O)cc4c3C)no2)C(C)C)cc1 (racemic) [Compound 126] , can you help? > 50%

Looking for the measured Dmax of Cc1ncsc1-c1ccc([C@H](C)NC(=O)[C@@H]2C[C@@H](O)CN2C(=O)[C@@H](c2cc(OCCN3CC(C4(C)CNc5nnc(-c6ccccc6O)cc54)C3)no2)C(C)C)cc1 (mixture of isomers) [Compound 134] , can you help? < 50%

Looking for the measured Dmax of Cc1ncsc1-c1ccc([C@H](C)NC(=O)[C@@H]2C[C@@H](O)CN2C(=O)[C@@H](c2cc(OCCNC3CC[C@]34C[C@@H](c3cc5cc(-c6ccccc6O)nnc5[nH]3)C4)no2)C(C)C)cc1 (mixture of isomers) [Compound 133] , can you help? > 50%

Looking for the measured Dmax of Cc1ncsc1-c1ccc([C@H](C)NC(=O)[C@@H]2C[C@@H](O)CN2C(=O)[C@@H](c2cc(OCCN3CC[C@@H](c4c[nH]c5nnc(-c6ccccc6O)cc45)C3)no2)C(C)C)cc1 (racemic) [Compound 262] , can you help? < 50%

Looking for the measured Dmax of Cc1ncsc1-c1ccc([C@H](C)NC(=O)[C@@H]2C[C@@H](O)CN2C(=O)[C@@H](c2cc(OCCN3CC(c4[nH]c5nnc(-c6ccccc6O)cc5c4F)C3)no2)C(C)C)cc1 (racemic) [Compound 121] , can you help? < 50%

Looking for the measured Dmax of Cc1ncsc1C12CC(CNC(=O)[C@@H]3C[C@@H](O)CN3C(=O)[C@H](c3cc(OCCN4CC(c5cc6cc(-c7ccccc7O)nnc6[nH]5)C4)no3)C(C)C)(C1)C2 (single isomer, unassigned) [Compound 114] , can you help? < 50%
